target: Cytochrome P450 3A4 (Homo sapiens) (UniProt P08684); test: qHTS Assay for Activators of Cytochrome P450 3A4 (AID 885); conditions: recombinant CYP3A4, Luciferin-PPXE luminescence, 60 min; series mostly up to 11.4 µM; also: nearly all actives have a fitted effect of over 65% in size
Sequence (P08684 whole entry, looked up): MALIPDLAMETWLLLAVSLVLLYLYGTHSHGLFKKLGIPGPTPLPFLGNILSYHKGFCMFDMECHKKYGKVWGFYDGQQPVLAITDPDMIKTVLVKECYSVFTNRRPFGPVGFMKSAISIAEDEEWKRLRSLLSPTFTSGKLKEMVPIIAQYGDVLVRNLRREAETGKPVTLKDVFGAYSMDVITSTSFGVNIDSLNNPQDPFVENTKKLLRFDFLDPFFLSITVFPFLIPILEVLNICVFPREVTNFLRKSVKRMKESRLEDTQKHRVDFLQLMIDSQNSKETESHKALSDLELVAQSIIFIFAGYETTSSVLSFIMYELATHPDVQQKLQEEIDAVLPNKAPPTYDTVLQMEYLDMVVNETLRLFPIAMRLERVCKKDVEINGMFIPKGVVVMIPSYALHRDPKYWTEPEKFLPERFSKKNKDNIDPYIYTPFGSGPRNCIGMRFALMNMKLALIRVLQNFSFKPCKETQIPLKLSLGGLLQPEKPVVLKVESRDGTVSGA
Calls of active or inactive are those of the source. Calls follow the shape of the dose curve; as a rule, active = well fitted activation curve with a large enough effect; inconclusive = small, poorly fitted or top-dose-only effect; inactive = no such curve, though single readings can be large or run the other way.
Field 'call' accepts 1 (yes) = active, 0 (no) = inactive

Solved entries (count: 5):
compound	measuredOn	qualitativeLabel
O=C(O)/C=C\C(=O)Nc1ccc2c(c1)-c1ccccc1C2	Cytochrome P450 3A4 (Homo sapiens) (UniProt P08684)	0 (no)
Nc1ccc(N(S(=O)(=O)c2ccccc2)S(=O)(=O)c2ccccc2)c(Cl)c1	Cytochrome P450 3A4 (Homo sapiens) (UniProt P08684)	0 (no)
CC/C=C/C/C=C/C/C=C/CCCCCCCC(=O)OCC	Cytochrome P450 3A4 (Homo sapiens) (UniProt P08684)	0 (no)
O=S(=O)(c1cnccc1N1CCN(CCO)CC1)N1CCCC1	Cytochrome P450 3A4 (Homo sapiens) (UniProt P08684)	0 (no)
S=C(CSc1ccccc1)Nc1cccc2ccccc12	Cytochrome P450 3A4 (Homo sapiens) (UniProt P08684)	0 (no)

Input: Write down the call the test reported for this compound. Item: `CC(C)[C@@H]1NC(=O)[C@H](CCCCN)NC(=O)[C@H](Cc2c[nH]c3ccccc23)NC(=O)[C@H](Cc2ccc(O)cc2)NC(=O)[C@H](C)N(C)C(=O)[C@H](Cc2ccccc2)NC1=O`
Output: 0 (no)

Input: Write down the call the test reported for this compound. Item: `Nc1nc(SCc2ccccc2[N+](=O)[O-])c2[nH]cnc2n1`
Output: 0 (no)

Input: Write down the call the test reported for this compound. Item: `C[C@@H]1Oc2ccc(C(=O)C[C@@H](C(=O)O)c3ccc4c(c3)OCO4)cc2O1`
Output: 0 (no)

Input: Write down the call the test reported for this compound. Item: `Cc1ccccc1N1CCN(S(=O)(=O)C[C@@]23CC[C@H](C[C@H]2NC(=O)[C@@H](N)CCS(C)(=O)=O)C3(C)C)CC1`
Output: 0 (no)

Input: Write down the call the test reported for this compound. Item: `O=C(Oc1ccc2c(c1)CN(Cc1ccccc1)CO2)c1ccccc1`
Output: 0 (no)

Input: Write down the call the test reported for this compound. Item: `C=C1CC[C@H](O)C/C1=C/C=C1\CCC[C@]2(C)[C@@H]([C@H](C)CCCC(C)C)CC[C@@H]12`
Output: 0 (no)
